biological target: hMC5-R (Homo sapiens); construct: expressed in transfected cells; host or cells: CHO-K1; assay: cyclic AMP bioassay (ECL) in CHO-K1 cells; assay type: cell-based
Sequence (P33032 whole entry): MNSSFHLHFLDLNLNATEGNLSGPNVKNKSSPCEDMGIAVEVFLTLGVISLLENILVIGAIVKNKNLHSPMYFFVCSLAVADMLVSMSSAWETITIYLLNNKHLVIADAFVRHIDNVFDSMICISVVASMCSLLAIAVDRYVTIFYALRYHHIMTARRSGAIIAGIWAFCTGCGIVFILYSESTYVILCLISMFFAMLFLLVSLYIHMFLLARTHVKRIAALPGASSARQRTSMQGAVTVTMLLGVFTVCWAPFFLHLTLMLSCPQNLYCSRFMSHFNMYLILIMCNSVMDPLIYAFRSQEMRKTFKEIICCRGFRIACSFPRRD
pEC50: −log10 of the molar value.
Returns one of Y or N; Y when pEC50 is >= 6.

Solved entries (count: 9):
[[record]]
structure_smiles_string = "C[C@H]1NC(=O)[C@@H](NC(=O)CN2C(=O)N[C@@H](CCCNC(=N)N)C2=O)CSSC[C@@H](C(N)=O)NC(=O)[C@H](Cc2c[nH]c3ccccc23)NC(=O)[C@H](CCCNC(=N)N)NC(=O)[C@@H](Cc2ccc3ccccc3c2)NC(=O)[C@H](Cc2cnc[nH]2)NC1=O"
category_label = "Y"

[[record]]
structure_smiles_string = "CCCC[C@H](NC(C)=O)C(=O)N[C@H]1CSSC[C@@H](C(N)=O)NC(=O)[C@H](Cc2c[nH]c3ccccc23)NC(=O)[C@H](CCCNC(=N)N)NC(=O)[C@@H](Cc2ccc3ccccc3c2)NC(=O)[C@H](Cc2c[nH]cn2)NC(=O)[C@@H](C)NC1=O"
category_label = "Y"

[[record]]
structure_smiles_string = "CC(=O)N[C@@H](CCCNC(=N)N)C(=O)N[C@H]1CSSC[C@@H](C(N)=O)NC(=O)[C@H](Cc2c[nH]c3ccccc23)NC(=O)[C@H](CCCNC(=N)N)NC(=O)[C@@H](Cc2ccccc2)NC(=O)[C@H](Cc2c[nH]cn2)NC(=O)[C@@H](C)NC1=O"
category_label = "N"

[[record]]
structure_smiles_string = "CCCC[C@H](NC(C)=O)C(=O)N[C@H]1CSSC[C@@H](C(N)=O)NC(=O)[C@H](Cc2c[nH]c3ccccc23)NC(=O)[C@H](CCCNC(=N)N)NC(=O)[C@@H](Cc2ccccc2)NC(=O)[C@H](Cc2c[nH]cn2)NC(=O)[C@@H](C)NC1=O"
category_label = "Y"

[[record]]
structure_smiles_string = "CCCC[C@@H]1NC(=O)N(CC(=O)N[C@H]2CSSC(C)(C)[C@@H](C(N)=O)NC(=O)[C@H](Cc3c[nH]c4ccccc34)NC(=O)[C@H](CCCNC(=N)N)NC(=O)[C@@H](Cc3ccccc3)NC(=O)[C@H](Cc3cnc[nH]3)NC(=O)[C@@H](C)NC2=O)C1=O"
category_label = "Y"

[[record]]
structure_smiles_string = "C[C@@H]1NC(=O)N(CC(=O)N[C@H]2CSSC[C@@H](C(N)=O)NC(=O)[C@H](Cc3c[nH]c4ccccc34)NC(=O)[C@H](CCCNC(=N)N)NC(=O)[C@@H](Cc3ccccc3)NC(=O)[C@H](Cc3cnc[nH]3)NC(=O)[C@@H](C)NC2=O)C1=O"
category_label = "Y"

[[record]]
structure_smiles_string = "CCCC[C@H](NC(C)=O)C(=O)N[C@H]1CSSC(C)(C)[C@@H](C(N)=O)NC(=O)[C@H](Cc2c[nH]c3ccccc23)NC(=O)[C@H](CCCNC(=N)N)NC(=O)[C@@H](Cc2ccccc2)NC(=O)[C@H](Cc2c[nH]cn2)NC(=O)[C@@H](C)NC1=O"
category_label = "N"

[[record]]
structure_smiles_string = "CC(=O)N[C@@H](CCCNC(=N)N)C(=O)N[C@H]1CSSC(C)(C)[C@@H](C(N)=O)NC(=O)[C@H](Cc2c[nH]c3ccccc23)NC(=O)[C@H](CCCNC(=N)N)NC(=O)[C@@H](Cc2ccccc2)NC(=O)[C@H](Cc2c[nH]cn2)NC(=O)[C@@H](C)NC1=O"
category_label = "N"

[[record]]
structure_smiles_string = "CC(=O)N[C@H](CCCNC(=N)N)C(=O)N[C@H]1CSSC(C)(C)[C@@H](C(N)=O)NC(=O)[C@H](Cc2c[nH]c3ccccc23)NC(=O)[C@H](CCCNC(=N)N)NC(=O)[C@@H](Cc2ccccc2)NC(=O)[C@H](Cc2c[nH]cn2)NC(=O)[C@@H](C)NC1=O"
category_label = "N"


Please turn your attention to the following entry.
Prompt: Given the entry C[C@H]1NC(=O)[C@@H](NC(=O)CN2C(=O)CNC2=O)CSSC[C@@H](C(N)=O)NC(=O)[C@H](Cc2c[nH]c3ccccc23)NC(=O)[C@H](CCCNC(=N)N)NC(=O)[C@@H](Cc2ccccc2)NC(=O)[C@H](Cc2cnc[nH]2)NC1=O , answer whether its pEC50 meets or surpasses 6.
Completion: Y

Data origin: patent US20120135923A1
